Assignment: determine reported inhibition of the amidase activity of the thrombin for the given substances.
- test.target: thrombin (Homo sapiens, UniProt P00734)
- assay.name: in-vitro inhibition of the amidase activity of thrombin (fluorogenic substrate Tos-Gly-Pro-Arg-AMC)
- Type: biochemical
- Parameters: 10 μl of human thrombin solution
- experimental.parameters: peptide concentration of 1 μM
Square brackets hold non-standard residues; d marks the D form. Cha = N[C@@H](CC1CCCCC1)C(=O)O; Nle = CCCC[C@H](N)C(=O)O
One number for each entry, in %.

# per-item lookup of inhibition of the amidase activity of the thrombin; items listed below
1. N-acetyl-D-Lys-L-Nle-L-Cha-D-Pro-D-Tyr-L-Arg amide (Ac-[dK][Nle][Cha][dP][dY]R-NH2; SMILES CCCC[C@H](NC(=O)[C@@H](CCCCN)NC(C)=O)C(=O)N[C@@H](CC1CCCCC1)C(=O)N1CCC[C@@H]1C(=O)N[C@H](Cc1ccc(O)cc1)C(=O)N[C@@H](CCCNC(=N)N)C(N)=O) [Example 12]
2. N-acetyl-L-Ser-L-Arg-L-Cha-D-Pro-D-Tyr-L-Arg amide (Ac-SR[Cha][dP][dY]R-NH2; SMILES CC(=O)N[C@@H](CO)C(=O)N[C@@H](CCCNC(=N)N)C(=O)N[C@@H](CC1CCCCC1)C(=O)N1CCC[C@@H]1C(=O)N[C@H](Cc1ccc(O)cc1)C(=O)N[C@@H](CCCNC(=N)N)C(N)=O) [Example 11]
3. N-acetyl-L-Arg-L-Cha-D-Pro-D-Tyr-L-Arg amide (Ac-R[Cha][dP][dY]R-NH2; SMILES CC(=O)N[C@@H](CCCNC(=N)N)C(=O)N[C@@H](CC1CCCCC1)C(=O)N1CCC[C@@H]1C(=O)N[C@H](Cc1ccc(O)cc1)C(=O)N[C@@H](CCCNC(=N)N)C(N)=O) [Example 14]

a:
1. 48
2. 51
3. 47

Origin of values: patent US7423021B2
